- System: HepG2
- testProtocol: cytotoxicity call (relative viability < 0.9)
- measurementConditions: 10 µM
In all, about 39,000 compounds went through this assay and about 3,300 (8.5%) were called active. What follows is part of a selection rich in actives, with near analogues and random picks from the rest.
Give your call using only these classes: active, inactive

smilesInput | qualitativeLabel
C[C@@H]1CN([C@@H](C)CO)C(=O)c2cc(NC(=O)Nc3ccccc3)ccc2O[C@@H](C)CCCCO[C@H]1CN(C)Cc1ccc2c(c1)OCO2 | inactive
C=C1CC[C@@H]2C(C)(C)CCC[C@@]2(C)[C@@H]1CC/C(C)=C/C(=O)OC | inactive
C[C@H]1CCCCO[C@H](CN(C)Cc2ccc3c(c2)OCO3)[C@@H](C)CN([C@@H](C)CO)C(=O)c2cc(NC(=O)Nc3ccccc3)ccc2O1 | inactive
C[C@@H]1CCCCO[C@@H](CN(C)Cc2ccc3c(c2)OCO3)[C@H](C)CN([C@H](C)CO)C(=O)c2cc(NC(=O)Nc3ccccc3)ccc2O1 | inactive
C[C@@H]1CCCCO[C@@H](CN(C)Cc2ccc3c(c2)OCO3)[C@@H](C)CN([C@H](C)CO)C(=O)c2cc(NC(=O)Nc3ccccc3)ccc2O1 | inactive
C[C@@H]1CN([C@H](C)CO)C(=O)c2cc(NC(=O)Nc3ccccc3)ccc2O[C@@H](C)CCCCO[C@@H]1CN(C)Cc1ccc2c(c1)OCO2 | inactive

Which outcome was entered for the compound `C[C@@H]1CCCCO[C@H](CN(C)Cc2ccc3c(c2)OCO3)[C@H](C)CN([C@H](C)CO)C(=O)c2cc(NC(=O)Nc3ccccc3)ccc2O1` in this test?
active

----------
- System: HepG2
- testProtocol: cytotoxicity call (relative viability < 0.9)
- measurementConditions: 10 µM
The whole screen tested about 39,000 compounds, of which about 3,300 (8.5%) were called active. The entries come from a sample that favours actives as a whole.
Give your call using only these classes: 1 (active), 0 (inactive)

See these solved cases before continuing.
smilesInput | qualitativeLabel
C[C@@H]1CN([C@H](C)CO)C(=O)c2cccc(NS(C)(=O)=O)c2O[C@H]1CN(C)C(=O)Nc1ccc2c(c1)OCO2 | 0
Cc1cc(C2(c3cc(C)c(N)c(C)c3)CCCCC2)cc(C)c1N | 1
CC(C)N1C[C@H](C)[C@@H](CN(C)Cc2cccc(Cl)c2)Oc2c(NC(=O)c3ccncc3)cccc2C1=O | 0
C[C@H](CO)N1C[C@H](C)[C@@H](CN(C)S(=O)(=O)c2cn(C)cn2)Oc2ccc(NC(=O)CCC(F)(F)F)cc2C1=O | 0

Which outcome was entered for the compound `Cc1noc(C)c1NC(=O)N(C)C[C@H]1OCCCC[C@@H](C)Oc2ccc(NS(=O)(=O)c3ccc(F)cc3)cc2C(=O)N([C@@H](C)CO)C[C@H]1C` in this test?
0

Which outcome was entered for the compound `C[C@@H]1CN([C@@H](C)CO)C(=O)c2cc(NC(=O)Cc3ccccc3)ccc2O[C@@H](C)CCCCO[C@@H]1CN(C)S(=O)(=O)c1cccs1` in this test?
0

Which outcome was entered for the compound `O=C(C[C@H]1CC[C@@H]2[C@H](COC[C@@H](O)CN2S(=O)(=O)c2ccc(Cl)cc2)O1)NCCN1CCCC1` in this test?
0

Which outcome was entered for the compound `CC(C)C(=O)O` in this test?
0

----------
- System: HepG2
- testProtocol: cytotoxicity call (relative viability < 0.9)
- measurementConditions: 10 µM
Screen size: about 39,000 compounds; about 3,300 (8.5%) were called active. The entries come from a sample that favours actives as a whole.

smilesInput | measurementTarget | cytotoxicity call
COc1ccccc1C#Cc1ccc2c(c1)O[C@H](CN(C)Cc1ccncc1)[C@@H](C)CN([C@H](C)CO)S2(=O)=O | HepG2 | inactive
COc1ccccc1C#Cc1ccc2c(c1)O[C@@H](CN(C)Cc1ccncc1)[C@@H](C)CN([C@H](C)CO)S2(=O)=O | HepG2 | inactive
COc1ccccc1C#Cc1ccc2c(c1)O[C@@H](CN(C)Cc1ccncc1)[C@H](C)CN([C@H](C)CO)S2(=O)=O | HepG2 | inactive

----------
- System: HepG2
- testProtocol: cytotoxicity call (relative viability < 0.9)
- measurementConditions: 10 µM
Among all 39,000 compounds or so, about 3,300 (8.5%) were called active. This is one part of a sample in which actives are shown more often than they occur.
Give your call using only these classes: true (active), false (inactive)

See these solved cases before continuing.
molecule | measurementTarget | qualitativeLabel
C[C@@H]1CN([C@H](C)CO)C(=O)c2cc(NC(=O)Nc3ccc(C(F)(F)F)cc3)ccc2O[C@@H](C)CCCCO[C@H]1CN(C)S(C)(=O)=O | HepG2 | true
O=C(O[C@@H]1Cc2c(O)cc(O)cc2O[C@@H]1c1cc(O)c(O)c2c(=O)c(O)cc([C@H]3Oc4cc(O)cc(O)c4C[C@H]3O)c-2c1)c1cc(O)c(O)c(O)c1 | HepG2 | true
C[C@@H]1CCCCO[C@H](CN(C)C)[C@H](C)CN([C@H](C)CO)C(=O)c2cc(NC(=O)Nc3ccc(C(F)(F)F)cc3)ccc2O1 | HepG2 | true
C[C@@H]1CCCCO[C@@H](CN(C)C)[C@H](C)CN([C@H](C)CO)C(=O)c2cc(NC(=O)Nc3ccc(C(F)(F)F)cc3)ccc2O1 | HepG2 | false
C[C@@H]1CCCCO[C@H](CN(C)C)[C@@H](C)CN([C@H](C)CO)C(=O)c2cc(NC(=O)Nc3ccc(C(F)(F)F)cc3)ccc2O1 | HepG2 | false

Which outcome was entered for the molecule `O=c1c(O)cc([C@H]2Oc3cc(O)cc(O)c3C[C@H]2O)c2cc([C@H]3Oc4cc(O)cc(O)c4C[C@H]3O)cc(O)c(O)c1-2` in this test?
false

Which outcome was entered for the molecule `CC(C)NC(=O)Nc1ccc2c(c1)C(=O)N([C@@H](C)CO)C[C@H](C)[C@H](CN(C)C(=O)Nc1ccc3c(c1)OCO3)O2` in this test?
false

Which outcome was entered for the molecule `C[C@@H]1CN([C@@H](C)CO)C(=O)c2cc(Br)cnc2O[C@@H]1CN(C)C(=O)CN1CCOCC1` in this test?
false

Which outcome was entered for the molecule O=C(OC1Cc2c(O)cc(O)cc2OC1c1cc(O)c(=O)c2c(O)c(O)cc(C3Oc4cc(O)cc(O)c4CC3O)c2c1)c1cc(O)c(O)c(O)c1 (stereo not drawn) in this test?
false

Which outcome was entered for the molecule `C[C@@H]1CCCCO[C@H](CN(C)S(C)(=O)=O)[C@@H](C)CN([C@H](C)CO)C(=O)c2cc(NC(=O)Nc3ccc(C(F)(F)F)cc3)ccc2O1` in this test?
false

Which outcome was entered for the molecule `C[C@@H]1CN([C@@H](C)CO)C(=O)c2cc(NC(=O)Cc3ccccc3)ccc2O[C@@H]1CN(C)Cc1ccc(C(=O)Nc2ccccc2N)cc1` in this test?
false

Which outcome was entered for the molecule `C[C@@H]1CCCCO[C@@H](CN(C)C)[C@H](C)CN([C@@H](C)CO)C(=O)c2cc(NC(=O)Nc3ccc(C(F)(F)F)cc3)ccc2O1` in this test?
false

Which outcome was entered for the molecule `C[C@@H]1CCCCO[C@H](CN(C)C)[C@H](C)CN([C@@H](C)CO)C(=O)c2cc(NC(=O)Nc3ccc(C(F)(F)F)cc3)ccc2O1` in this test?
true

----------
- Tested on: HepG2
- testProtocol: cytotoxicity call (relative viability < 0.9)
- measurementConditions: 10 µM
The campaign covered roughly 39,000 compounds. About 3,300 (8.5%) were called active. The sample holds actives, similar compounds and a random draw of the others, so the mix is not that of the screen.
Give your call using only these classes: active, inactive

smilesInput | qualitativeLabel
C[C@H](CO)N1C[C@H](C)[C@@H](CN(C)S(=O)(=O)c2ccc(F)cc2)Oc2ccc(NC(=O)C3CC3)cc2C1=O | inactive

Which outcome was entered for the compound `Cc1noc(C)c1NC(=O)N(C)C[C@@H]1Oc2ccc(NC(=O)CCCN(C)C)cc2C(=O)N([C@@H](C)CO)C[C@@H]1C` in this test?
inactive

Which outcome was entered for the compound `C[C@H]1CN([C@@H](C)CO)C(=O)Cc2cc(NC(=O)Nc3cccc4ccccc34)ccc2O[C@H]1CN(C)CC1CCCCC1` in this test?
active

----------
- System: HepG2
- testProtocol: cytotoxicity call (relative viability < 0.9)
- measurementConditions: 10 µM
In all, about 39,000 compounds went through this assay and about 3,300 (8.5%) were called active. What follows is part of a selection rich in actives, with near analogues and random picks from the rest.
Give your call using only these classes: Y (active), N (inactive)

See these solved cases before continuing.
smilesInput | qualitativeLabel
C[C@@H]1CN([C@@H](C)CO)C(=O)c2cccc(NS(=O)(=O)c3ccccc3)c2O[C@@H]1CN(C)Cc1ccc(Oc2ccccc2)cc1 | N
CO[C@@H](CCO)[C@@H](O)c1ccc(O)c(F)c1 | N
CCCN(C)C[C@@H]1OCCCC[C@@H](C)Oc2ccc(NC(=O)Nc3ccc(C(F)(F)F)cc3)cc2C(=O)N([C@H](C)CO)C[C@@H]1C | Y
C[C@@H]1CN([C@@H](C)CO)C(=O)c2cccc(NC(=O)c3nc4ccccc4s3)c2O[C@@H]1CN(C)S(=O)(=O)c1cn(C)cn1 | N
C[C@H]1CN([C@@H](C)CO)C(=O)c2cc(NC(=O)C3CCCCC3)ccc2O[C@@H]1CN(C)Cc1ccc(-c2ccccc2)cc1 | N

Which outcome was entered for the compound `C[C@H]1CN([C@@H](C)CO)C(=O)c2cc(NC(=O)C3CCCCC3)ccc2O[C@H]1CN(C)Cc1ccc(-c2ccccc2)cc1` in this test?
Y

Which outcome was entered for the compound `CCCN(C)C[C@H]1OCCCC[C@@H](C)Oc2ccc(NC(=O)Nc3ccc(C(F)(F)F)cc3)cc2C(=O)N([C@@H](C)CO)C[C@H]1C` in this test?
Y
